Origin of values: ChEMBL document CHEMBL4665778

For PI3-kinase p110-delta/p85-alpha (Homo sapiens), measured IC50 is reported for the entries below.

Given the compound `C[C@@H](C1CC1)N1Cc2cc(-c3ccn4nc(N)c(-c5ncccn5)c4n3)cc(C(F)(F)F)c2C1=O` , what is its reported IC50?
> 10 µM

Given the compound Cc1cc(-c2ccc3[nH]c(N)nc3c2)cc2c1C(=O)N([C@@H](C)C1CC1)C2 (racemic) , what is its reported IC50?
> 10 µM

Given the compound Cc1cc(-c2ccc3nc(N)nn3c2)cc2c1C(=O)N([C@@H](C)C1CC1)C2 (racemic) , what is its reported IC50?
> 10 µM
